Molecular target: Beta-2 adrenergic receptor (Homo sapiens) (UniProt P07550)
Sequence (P07550 whole entry, looked up): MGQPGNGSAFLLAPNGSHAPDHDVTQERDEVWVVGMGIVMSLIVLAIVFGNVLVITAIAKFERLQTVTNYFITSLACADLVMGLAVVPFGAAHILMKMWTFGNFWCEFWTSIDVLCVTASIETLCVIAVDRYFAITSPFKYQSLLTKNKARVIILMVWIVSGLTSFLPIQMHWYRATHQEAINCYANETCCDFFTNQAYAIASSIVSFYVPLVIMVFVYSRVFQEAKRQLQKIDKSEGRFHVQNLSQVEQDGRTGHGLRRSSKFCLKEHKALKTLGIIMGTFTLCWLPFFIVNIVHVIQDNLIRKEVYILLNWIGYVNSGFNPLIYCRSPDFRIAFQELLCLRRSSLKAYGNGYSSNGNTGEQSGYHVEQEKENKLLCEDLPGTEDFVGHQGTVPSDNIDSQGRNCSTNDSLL
Experiment: qHTS assay of beta-arrestin-biased ligands of beta2-adrenergic receptor: Hit Validation with GloSensor; further: potency means the concentration at half of the fitted maximal effect
Settings: W9-Glo22F cells, GloSensor cAMP luminescence, beta2AR agonism
From the text: The concept of biased agonism is an emerging concept of molecular pharmacology which proposes that seven transmembrane receptors (7TMRs) or G protein-coupled receptors (GPCRs), exist in multiple signaling conformations and complexes and that ligands (either agonists or antagonists) can induce signaling biased responses for distinct signal transduction cascades. […]
Screen size: about 1,200 compounds; about 85 (7%) were called active. The full list was thinned out, with actives kept by preference.
measure: Potency

CC1(C)C/C(=N\NC(=S)Nc2ccccc2F)c2cc(O)ccc2O1	inactive
Cc1ccc2cccc(SCC(=O)NCC#N)c2n1	inactive
Cc1ccc(CNc2ccc(O)cc2)cc1	inactive
CC(NCCc1ccc(O)cc1)C(O)c1ccc(O)cc1 (centres undefined)	0.0116 µM (active)

----------
Target: Beta-2 adrenergic receptor (Homo sapiens)
Assay: qHTS assay of beta-arrestin-biased ligands of beta2-adrenergic receptor: Hit Validation with GloSensor
Conditions: W9-Glo22F cells, GloSensor cAMP luminescence, beta2AR agonism
About 85 (7%) of roughly 1,200 compounds were called active. This is one part of a sample in which actives are shown more often than they occur.
measure: outcome

C/C(=N\NC(=S)NC(C)C)c1ccccc1OC(F)F	inactive
Cc1ccc(S(=O)(=O)N2CCN(C(C)C(=O)NCC(C)c3ccccc3)CC2)cc1 (stereo not drawn)	inactive
COc1cnc(-c2ccccn2)nc1Sc1ccccc1Cl	inactive

----------
Target: Beta-2 adrenergic receptor (Homo sapiens) (UniProt P07550)
Assay: qHTS assay of beta-arrestin-biased ligands of beta2-adrenergic receptor: Hit Validation with GloSensor
Settings: W9-Glo22F cells, GloSensor cAMP luminescence, beta2AR agonism
In all, about 1,200 compounds went through this assay and about 85 (7%) were called active. Calls follow the shape of the full dose curve. The sample as a whole holds a higher share of actives than the screen did.
Allowed answers: T = active, F = inactive

Recorded results for 4 molecules are shown here.
O=C(/C=C/c1ccccc1)Oc1cccc2cccnc12	F
COc1ccccc1-c1cc(C(=O)N2CCN(c3ccccc3OC)CC2)no1	F
C[C@H](C(=O)CC(=O)OC(C)(C)C)[C@H](O)c1ccccc1	F
CNc1sc(C(=O)c2ccccc2F)c(N)c1-c1nc2ccccc2s1	T

Hi, do you know how O=C(NC1CCCCC1)N(Cc1cc2cc3c(cc2[nH]c1=O)OCCO3)CC1CCCO1 (stereo unspecified) came out in this test?
F

Hi, do you know how C/C(=N/NC(=O)c1ccoc1C)c1ccc(NC(=O)C2CCCC2)cc1 came out in this test?
F

Hi, do you know how C/C(=N\NC(=S)NC1CCCCC1)c1ccc(O)cc1 came out in this test?
T

Hi, do you know how NC(=S)N/N=C/c1ccc(-c2cccc([N+](=O)[O-])c2)o1 came out in this test?
T

Hi, do you know how COC(=O)c1cc2sc(Cl)cc2n1CC(=O)Nc1ccc(OC)c(OC)c1OC came out in this test?
F

----------
Biological target: Beta-2 adrenergic receptor (Homo sapiens)
Test: qHTS assay of beta-arrestin-biased ligands of beta2-adrenergic receptor: Hit Validation with GloSensor
Conditions: W9-Glo22F cells, GloSensor cAMP luminescence, beta2AR agonism
The campaign covered roughly 1,200 compounds. About 85 (7%) were called active. Calls follow the shape of the full dose curve. The sample as a whole holds a higher share of actives than the screen did.
Allowed answers: 1 (active), 0 (inactive)

Recorded results for 5 compounds are shown here.
CCNC(=S)N/N=C(\C)c1cccc(C(F)(F)F)c1	0
NC(=S)N=Nc1c(O)n(Cc2ccc(F)cc2)c2ccccc12	0
C=CCNC(=S)Nc1cc(C)ccn1	0
Cn1c(O)c(/C=N/NC(=O)c2cc3ccccc3cc2O)c2ccccc21	0
Oc1[nH]c2ccc(Br)cc2c1N=NC(=S)NCC1CCCO1 (configuration not stated)	0

Hi, do you know how CC(C)C(=O)N1CCC2(CC1)Oc1ccc(Cl)cc1C(=O)C21CC(c2ccccc2)=NO1 (configuration not stated) came out in this test?
0

----------
Molecular target: Beta-2 adrenergic receptor (Homo sapiens) (UniProt P07550)
Test: qHTS assay of beta-arrestin-biased ligands of beta2-adrenergic receptor: Hit Validation with GloSensor; further: potency means the concentration at half of the fitted maximal effect
Details: W9-Glo22F cells, GloSensor cAMP luminescence, beta2AR agonism
Out of some 1,200 compounds screened, about 85 (7%) were called active. This excerpt belongs to a sample that is enriched for actives.
measure: Potency

For orientation, consider the following solved cases.
O=C(c1ccccc1)c1ccc2nc(-c3ccco3)c(-c3ccco3)nc2c1	32.6 µM (active)
NC(=S)N=Nc1c(O)n(CCCl)c2ccc(Cl)cc12	32.6 µM (active)
N=c1n(Cc2ccccc2)c2ccccc2n1Cc1ccccc1	inactive
CC(C)Oc1ccc(/C=N/NC(N)=S)cc1	inactive
CCOC(=O)C1=CN(Cc2cccc(-c3cccnc3)c2)S(=O)(=O)N(CC)C1C (stereo unspecified)	inactive

Next, consider the following compound.
// Input: NC(=S)n1[nH]c(-c2ccc([N+](=O)[O-])cc2)c(N=Nc2ccc(Cl)cc2)c1=O . Output its Potency only.
inactive
